# binding signal values compiled below
Molecular target: T1, RBFOX1 RRM (Homo sapiens, UniProt Q9NWB1 109-208)
T1 sequence: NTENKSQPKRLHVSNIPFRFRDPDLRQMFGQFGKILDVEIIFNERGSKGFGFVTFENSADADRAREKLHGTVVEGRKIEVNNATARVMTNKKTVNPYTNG
Test: EMSA; HiTS-Eq, 1 nM pool, 10 min; buffer printed only for the single-RNA assays: 10 mM Tris pH 7.5, 150 mM NaCl, 3.4 mM EDTA, 0.001% NP-40, 30 C
Conditions: tags: His6 N-terminal (pET28a); label: 5' 32P
In all, about 16,000 sequences were measured (“ka relative to ugcaugu”: median about 0.0091, highest 2% from about 0.032 on). What follows is part of a selection rich in the highest values, with near analogues and random picks from the rest.

Here's what some known entries look like.
UUGAAUC (DNA:RNA) RNA: GGGAGACCGGAAUUCAGAUUGUCCUUGAAUCUUAAAUCCCGUCGUAGCCACCA DNA 1: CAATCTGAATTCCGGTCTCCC DNA 2: TGGTGGCTACGACGGGATT
0.0179 KA relative to UGCAUGU
UUAAAUG (DNA:RNA) RNA: GGGAGACCGGAAUUCAGAUUGUCCUUAAAUGUUAAAUCCCGUCGUAGCCACCA DNA 1: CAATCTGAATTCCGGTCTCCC DNA 2: TGGTGGCTACGACGGGATT
0.0123 KA relative to UGCAUGU
GCAUUUU (DNA:RNA) RNA: GGGAGACCGGAAUUCAGAUUGUCCGCAUUUUUUAAAUCCCGUCGUAGCCACCA DNA 1: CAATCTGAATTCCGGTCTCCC DNA 2: TGGTGGCTACGACGGGATT
0.0088 KA relative to UGCAUGU

Switching to the query record.
So what does the record say about binding signal for ACAGCCG (DNA:RNA) RNA: GGGAGACCGGAAUUCAGAUUGUCCACAGCCGUUAAAUCCCGUCGUAGCCACCA DNA 1: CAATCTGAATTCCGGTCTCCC DNA 2: TGGTGGCTACGACGGGATT ?
0.00101 KA relative to UGCAUGU

All values here come from paper PMC9911399.
